The reported numbers originate from the supplement of paper PMC6555819.

test system: PPARg:RXRa IVT, anti-PPARg (NR concentration 270 nM, RXRa partner concentration 90 nM); assay: PBM binding z-score (relative to random genomic background probes); higher = stronger binding; sequences stand for … in GC…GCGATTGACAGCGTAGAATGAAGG
Listed below: PBM binding z-score values for each entry.
observation.type: PBM binding z-score

sequence_chain=TAGCCTAGGTTATGCGGGCCAGTATAGTGTCGGC target="PPARg:RXRa IVT, anti-PPARg (NR concentration 270 nM, RXRa partner concentration 90 nM)" value_measured=0.945
sequence_chain=TAGCCTAGGTCATTGGACCAGTATAGTACGCATC target="PPARg:RXRa IVT, anti-PPARg (NR concentration 270 nM, RXRa partner concentration 90 nM)" value_measured=3.17
sequence_chain=CTATGTAGGTTAAGGGGTTCATTCAGTTTGAAAG target="PPARg:RXRa IVT, anti-PPARg (NR concentration 270 nM, RXRa partner concentration 90 nM)" value_measured=6.85
sequence_chain=TCTCGGAGGACACGAAAAGTCAGAGCTCGACATC target="PPARg:RXRa IVT, anti-PPARg (NR concentration 270 nM, RXRa partner concentration 90 nM)" value_measured=0.139
sequence_chain=CCTACTGGGCCATGAAAGGTCATTGATTCAGTGA target="PPARg:RXRa IVT, anti-PPARg (NR concentration 270 nM, RXRa partner concentration 90 nM)" value_measured=4.58
sequence_chain=CGTCCAAGGTCAGTGAGGTCAGTGAATGCCGAGT target="PPARg:RXRa IVT, anti-PPARg (NR concentration 270 nM, RXRa partner concentration 90 nM)" value_measured=3.83
sequence_chain=CAAACTAGGTCAAGAGGTCAAACTCCGCTTCCCG target="PPARg:RXRa IVT, anti-PPARg (NR concentration 270 nM, RXRa partner concentration 90 nM)" value_measured=8.74
sequence_chain=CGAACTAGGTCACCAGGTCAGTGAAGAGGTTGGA target="PPARg:RXRa IVT, anti-PPARg (NR concentration 270 nM, RXRa partner concentration 90 nM)" value_measured=8.61
sequence_chain=CCTACTGGGCCAAGCTCATTGATCAGTCAAAGCA target="PPARg:RXRa IVT, anti-PPARg (NR concentration 270 nM, RXRa partner concentration 90 nM)" value_measured=2.91
sequence_chain=ATATGTATGTTAGGGTCATTCAGAAAGTAGGGAA target="PPARg:RXRa IVT, anti-PPARg (NR concentration 270 nM, RXRa partner concentration 90 nM)" value_measured=3.27
sequence_chain=ATATGTAGGTGAAGGGTCATTCAGGTTGGTTCGC target="PPARg:RXRa IVT, anti-PPARg (NR concentration 270 nM, RXRa partner concentration 90 nM)" value_measured=8.85
sequence_chain=CGTCAAAGCTCAACTAAGGTAACGTAAAGCACGC target="PPARg:RXRa IVT, anti-PPARg (NR concentration 270 nM, RXRa partner concentration 90 nM)" value_measured=-0.398
sequence_chain=CCTCGGAGGTCAGAAGGTCAGAGCTGTCCGCTTT target="PPARg:RXRa IVT, anti-PPARg (NR concentration 270 nM, RXRa partner concentration 90 nM)" value_measured=3.5
sequence_chain=CAAACTAGGTCACAGAGGGCAAAGTCCGTGCGTA target="PPARg:RXRa IVT, anti-PPARg (NR concentration 270 nM, RXRa partner concentration 90 nM)" value_measured=8.83
sequence_chain=CGGAGTAGGTTACGAGGGGGCATTCAGTGCGAAT target="PPARg:RXRa IVT, anti-PPARg (NR concentration 270 nM, RXRa partner concentration 90 nM)" value_measured=7.82
sequence_chain=CGAACTAGGTCAAAGGACAGTCAAAGGCGACGTA target="PPARg:RXRa IVT, anti-PPARg (NR concentration 270 nM, RXRa partner concentration 90 nM)" value_measured=8.4
sequence_chain=CGAATTAGGTCAAAGGACAGTGAAAGGCGACGTA target="PPARg:RXRa IVT, anti-PPARg (NR concentration 270 nM, RXRa partner concentration 90 nM)" value_measured=7.88
sequence_chain=CGTCCAAGGTCAAAGGTCAGGGAAGAGATGACGG target="PPARg:RXRa IVT, anti-PPARg (NR concentration 270 nM, RXRa partner concentration 90 nM)" value_measured=6.24
sequence_chain=TCGAGTAGGTTACGGGGTCATTCAGGGATGAAGA target="PPARg:RXRa IVT, anti-PPARg (NR concentration 270 nM, RXRa partner concentration 90 nM)" value_measured=6.24
sequence_chain=CCTACTGGGCCAAGGTCATAGATCAGTCAAAGCA target="PPARg:RXRa IVT, anti-PPARg (NR concentration 270 nM, RXRa partner concentration 90 nM)" value_measured=4.88
sequence_chain=ATATGTAGGTTTGGGTCATTCAGAAAGTAGGGAA target="PPARg:RXRa IVT, anti-PPARg (NR concentration 270 nM, RXRa partner concentration 90 nM)" value_measured=3.08
sequence_chain=ACTAACAGGCCAAGGGTCACTCAAGATTAGTCCG target="PPARg:RXRa IVT, anti-PPARg (NR concentration 270 nM, RXRa partner concentration 90 nM)" value_measured=3.21
sequence_chain=AGTCCAAGTTCACTAGGTAACGTAAGATTCAGCT target="PPARg:RXRa IVT, anti-PPARg (NR concentration 270 nM, RXRa partner concentration 90 nM)" value_measured=3.58
sequence_chain=CTATGTAGGTTAAAGGGGTCATTCAGTTTGAAAG target="PPARg:RXRa IVT, anti-PPARg (NR concentration 270 nM, RXRa partner concentration 90 nM)" value_measured=7.63
sequence_chain=ATATGTAGGTTCCATCCGGGTCATTCAGGCTATG target="PPARg:RXRa IVT, anti-PPARg (NR concentration 270 nM, RXRa partner concentration 90 nM)" value_measured=4.29
sequence_chain=CGAACTAGTTCAAAGGACAGTGAAAGGCGACGTA target="PPARg:RXRa IVT, anti-PPARg (NR concentration 270 nM, RXRa partner concentration 90 nM)" value_measured=0.499
sequence_chain=CCTAGTTGGTCAGGAGGTCCCACACCGGATATGA target="PPARg:RXRa IVT, anti-PPARg (NR concentration 270 nM, RXRa partner concentration 90 nM)" value_measured=0.483
sequence_chain=TCTCGGAGGACACGAAAGGTGAGAGCTCGACATC target="PPARg:RXRa IVT, anti-PPARg (NR concentration 270 nM, RXRa partner concentration 90 nM)" value_measured=0.956
sequence_chain=TATACTGGGTCAAAGGCCAGAGTACGAATGTCGA target="PPARg:RXRa IVT, anti-PPARg (NR concentration 270 nM, RXRa partner concentration 90 nM)" value_measured=7.37
sequence_chain=CTATGTAGGTTAAGGGGGTCATTCAGTTTGAAAG target="PPARg:RXRa IVT, anti-PPARg (NR concentration 270 nM, RXRa partner concentration 90 nM)" value_measured=7.74
sequence_chain=ATCGAATGGTCGTGAGGTGAGTATACAGAAAGGC target="PPARg:RXRa IVT, anti-PPARg (NR concentration 270 nM, RXRa partner concentration 90 nM)" value_measured=0.348
sequence_chain=CGTCCAAGGTCAATGCTAGCTCAGTGAAAGCATT target="PPARg:RXRa IVT, anti-PPARg (NR concentration 270 nM, RXRa partner concentration 90 nM)" value_measured=3.23
sequence_chain=TCTCGGAGGACACGAAACGTCAGAGCTCGACATC target="PPARg:RXRa IVT, anti-PPARg (NR concentration 270 nM, RXRa partner concentration 90 nM)" value_measured=0.0714
sequence_chain=CGTCAAAGTTCAAGTTAACGTAACAGAAAGCAGC target="PPARg:RXRa IVT, anti-PPARg (NR concentration 270 nM, RXRa partner concentration 90 nM)" value_measured=2.16
sequence_chain=AGTCGGAGGACAAAGGTCAGAGCTACGCCAGTGA target="PPARg:RXRa IVT, anti-PPARg (NR concentration 270 nM, RXRa partner concentration 90 nM)" value_measured=3.68
sequence_chain=AGTCAAAGTTCATCTAGGTATCGTAAGATATGCT target="PPARg:RXRa IVT, anti-PPARg (NR concentration 270 nM, RXRa partner concentration 90 nM)" value_measured=2.59
sequence_chain=TCGAGTGGGTTACGGGGGCATTCAGGGATGAAGA target="PPARg:RXRa IVT, anti-PPARg (NR concentration 270 nM, RXRa partner concentration 90 nM)" value_measured=6.37
sequence_chain=CCTTACGGGTCACTCTAGGTTATAGCATCGGAGT target="PPARg:RXRa IVT, anti-PPARg (NR concentration 270 nM, RXRa partner concentration 90 nM)" value_measured=3.69
sequence_chain=TAGCCTAGGTCATTGGGCCAGTATAGTACGCATC target="PPARg:RXRa IVT, anti-PPARg (NR concentration 270 nM, RXRa partner concentration 90 nM)" value_measured=3.89
sequence_chain=CGTCCAAGGTCATGGGAGGTCAGTGAAGACAGAT target="PPARg:RXRa IVT, anti-PPARg (NR concentration 270 nM, RXRa partner concentration 90 nM)" value_measured=4.47
sequence_chain=CCTTACAGGTCAAGGTTATAGCACGGGTGGTACG target="PPARg:RXRa IVT, anti-PPARg (NR concentration 270 nM, RXRa partner concentration 90 nM)" value_measured=4.19
